- experimentalDetails: Antioxidant activity assessed as DPPH radical scavenging activity after 30 mins by spectrophotometry
- Type: physicochemical
The reader will find reported IC50 values listed item by item below.
Number only, in µg/mL; omit the unit.

Recorded results for 2 molecules are shown here.
molecule="O=C1ON=C2C=C(c3ccc(O)cc3)CC(c3cccc([N+](=O)[O-])c3)C12 (stereo not drawn)" parametermeasured=IC50 observedmeasurement=202.15
molecule="CCOC(=O)C1C(=O)C=C(c2ccc(OC)cc2)CC1c1cccc([N+](=O)[O-])c1 (stereo not drawn)" parametermeasured=IC50 observedmeasurement=196.5

For the molecule CCOC(=O)C1C(=O)C=C(c2ccc(OC)cc2OC)CC1c1cccc([N+](=O)[O-])c1 (stereo not drawn) , what IC50 is on record?
195.65
